The entries below come with measured GI50 values attached.
System: CCRF-CEM
protocol notes: NCI tumour cell line growth inhibition, 48 h
Calls of active or inactive are those of the source. Cut-off read from the data, not from the text of the source: active = GI50 up to about 1.1 µM and inactive = higher.
readout type: GI50

INSERT INTO assay_data (compound, readout_type, obs_value) VALUES
  ('O=C1c2ccccc2-c2c1c(-c1ccc(F)cc1)nc1ccc3ccccc3c21', 'GI50', '> 100 µM (inactive)'),
  ('COc1ccc(-c2oc3c(CC(=O)O)cccc3c(=O)c2OC)cc1', 'GI50', '> 100 µM (inactive)'),
  ('Cc1ccc(S(=O)(=O)C(C#N)c2nc3ccccc3nc2N2CCOCC2)cc1 (stereo not given)', 'GI50', '13.9 µM (inactive)'),
  ('CCCC(=O)Nc1ncnc2c1ncn2C1OC2COP(=O)(O)OC2C1OC(=O)CCC (stereo not given)', 'GI50', '266 µM (inactive)'),
  ('COc1c(OC)c(OC)c(-c2cc(=O)c3c(OC)c(OC)c(OC)c(OC)c3o2)c(OC)c1OC', 'GI50', '34 µM (inactive)'),
  ('CCc1cc2c(c3c1CCCC3=O)CC1(Cc3ccc(C(=O)OC)cc3C1)C2 (stereo not given)', 'GI50', '29.3 µM (inactive)'),
  ('Oc1cc(CN2COc3ccccc32)c(O)cc1CNC1CCCCC1', 'GI50', '4.53 µM (inactive)'),
  ('CCN1CCN=C2c3cc(OC)ccc3Nc3c([N+](=O)[O-])ccc1c32', 'GI50', '0.571 µM (active)'),
  ('COc1ccc(C(c2ccc(C(C)C)cc(OC)c2=O)c2ccc(C(C)C)cc(OC)c2=O)cc1', 'GI50', '10.2 µM (inactive)'),
  ('NC(=O)c1ccc(/N=N/O)nc1', 'GI50', '> 100 µM (inactive)');

====

Test system: PC-3
protocol notes: NCI tumour cell line growth inhibition, 48 h
Active and inactive are the calls of the source. No stated cut-off is given here; in the data, active = GI50 up to about 1.1 µM and inactive = higher.
Labels: 1 (active), -1 (inactive)

INSERT INTO assay_data (molecule, cat) VALUES
  ('O=C(O)C1C(C(=O)O)C2C(=O)C=CC1N2Cc1ccccc1 (stereo not given)', -1),
  ('CNC(=S)N/N=C(\C(=N/NC(=S)NC)c1ccccn1)c1ccccn1', 1),
  ('CCOC(=O)c1csc(NC(=O)CCN(CC)CC)n1', -1),
  ('COc1cc(Br)c(OC)c2c(OC)cc(C)cc12', -1),
  ('Cc1c(-c2ccccc2)c(C#N)c2nnn(C3CCCCC3)c(=O)n12', -1),
  ('CCNC(=S)NNC(=O)C12CC3CC(CC(C3)C1)C2', -1),
  ('CCC(=O)Nc1cccc(NC(=O)c2c(Cl)c(Cl)c(Cl)c(Cl)c2-c2nc3ccccc3[nH]2)c1', -1),
  ('Cc1ccc([N+](=O)[O-])cc1NC(=O)C(=O)C1CCC2=C(Sc3ccccc3N2)C1=O (stereo not given)', -1),
  ('Cc1cc(C)cc(C(=N)c2ccccc2Cc2cccc3ccccc23)c1', -1),
  ('OCCSCc1cc(Cl)cc(Cl)c1O', -1),
  ('CC(C)N(c1cc2c(cc1F)c(=O)c(C(=O)O)cn2-c1ccc(N2CCN(C)CC2)cn1)C(C)C', -1),
  ('CC1=C2c3ccccc3N(S(=O)(=O)c3ccccc3)[C@H]2[C@H](C(=O)N2C3CC4CC[C@@]3(CS2(=O)=O)C4(C)C)CC1 (stereo not given in full)', -1),
  ('COC(=O)Nc1nc2ccccc2[nH]1', -1),
  ('COc1cccc(N2C(=O)CSC2c2cc(OC)c(OC)c(OC)c2)c1 (stereo not given)', -1),
  ('CC(=O)O[C@@H]1O[Si](C(C)(C)C)(C(C)(C)C)[C@H](C)[C@H]1C', -1),
  ('CCOC(=O)C(=[N+]=[N-])C(=O)CN1C(=O)c2ccccc2C1=O', -1),
  ('O=C(Cc1ccccc1)NCCCN(CCCCN(CCCNC(=O)Cc1ccccc1)C(=O)OCc1ccccc1)C(=O)OCc1ccccc1', -1),
  ('O=C(Cc1cccs1)N[C@@H]1C(=O)N2C(C(=O)OC(c3ccccc3)c3ccccc3)=C(CO)CS[C@H]12', -1),
  ('CC(=O)OC1COC(Nn2c(=O)[nH]c3ccccc3c2=O)C(OC(C)=O)C1OC(C)=O (stereo not given)', -1),
  ('NC(=O)c1nnn(Cc2cc(Cl)c(C(=O)c3ccc(Cl)cc3)c(Cl)c2)c1N', -1);

====

The entries below come with measured GI50 values attached.
System: A498
protocol notes: NCI tumour cell line growth inhibition, 48 h
Calls of active or inactive are those of the source. Cut-off read from the data, not from the text of the source: active = GI50 up to about 1.1 µM and inactive = higher.
readout type: GI50

INSERT INTO results (molecule, obs_value) VALUES
  ('CC(=O)OC[C@@H](COC(=O)/C=C/c1ccc(O)cc1)OC1OC(CO)C(O)C(O)C1O (stereo partly specified)', '> 100 µM (inactive)'),
  ('CSc1ccc2c(cc1=O)[C@@H](NC(=O)c1cc(O)c(O)c(O)c1)CCc1cc(O)c(O)c(O)c1-2', '> 100 µM (inactive)'),
  ('O=c1/c(=C/c2ccco2)sc2nc3ccccc3n12', '> 10 µM (inactive)'),
  ('Cc1ccc(C(=O)O)cc1NC(=O)c1cc(/C=C/c2ccccc2)[nH]c(=S)n1', '> 100 µM (inactive)'),
  ('CCC(=O)Nc1cccc(NC(=O)c2c(Cl)c(Cl)c(Cl)c(Cl)c2-c2nc3ccccc3[nH]2)c1', '> 100 µM (inactive)'),
  ('COc1ccc(-c2oc3c(CC(=O)O)cccc3c(=O)c2OC)cc1', '> 100 µM (inactive)'),
  ('CC(=O)O[C@H]1C(=O)[C@@]2(C)[C@H]([C@H](OC(=O)c3ccccc3)[C@]3(O)C[C@H](OC(=O)[C@H](O)[C@@H](NC(=O)C(C)(O)C(C)O)c4ccccc4)C(C)=C1C3(C)C)[C@]1(OC(C)=O)CO[C@@H]1C[C@@H]2O (stereo partly specified)', '9.44 µM (inactive)'),
  ('O=C(O)C12C3C4C1C1C2C3C41I (stereo unspecified)', '> 100 µM (inactive)'),
  ('OCCNCN(CNCCO)c1nc(N(CNCCO)CNCCO)nc(N(CNCCO)CNCCO)n1', '0.0764 µM (active)'),
  ('O=C(CCc1cc(O)ccc1O)OCCc1ccccc1', '> 100 µM (inactive)'),
  ('O=C(O)CSc1ccccc1C(=O)O', '> 100 µM (inactive)'),
  ('NNC(=O)CC(=O)Nc1ccc(Cl)cc1', '> 100 µM (inactive)'),
  ('CC(C)(C)N1C(=O)[N-]/[N+](=C(/C(c2ccccc2)=[N+]2/[N-]C(=O)N(C(C)(C)C)C2=O)c2ccccc2)C1=O', '> 100 µM (inactive)'),
  ('COc1ccccc1NC(=O)C(=O)C1C(=O)Nc2ccccc2[S+]1[O-] (stereo unspecified)', '> 100 µM (inactive)'),
  ('CC1=NN(c2nc(N)nc(CF)n2)C(C)(C)C1', '> 100 µM (inactive)'),
  ('O=C(O)CCSCc1ccccc1', '> 100 µM (inactive)'),
  ('Cc1c(C)c2c(c(N)c1C#N)C(=O)N(O)C2=O', '> 100 µM (inactive)'),
  ('CCOC(=O)c1nc2ccccc2nc1Oc1ccc(C#N)cc1', '> 100 µM (inactive)'),
  ('O=[N+]([O-])/C(Cl)=C(/C(Cl)=C(Cl)Cl)N1CCCCC1', '18.4 µM (inactive)'),
  ('[N-]=[N+]=NC1C(O)C(CO)OC1n1cnc2c(N)ncnc21 (stereo unspecified)', '66.8 µM (inactive)'),
  ('OC(C/C(=N\N1CCCCC1)c1cccs1)(C(F)(F)F)C(F)(F)F', '> 10 µM (inactive)'),
  ('COc1nc2c(c(=O)n1C)N[C@@H]1[C@@H](O)[C@H](O)CO[C@@H]1N2', '> 100 µM (inactive)'),
  ('CCc1nc(N)nc(N)c1-c1ccc(Cl)c(N=[N+]=[N-])c1', '8.39 µM (inactive)'),
  ('Cc1ccc(/C=N/NS(=O)(=O)c2ccccc2)cc1', '> 100 µM (inactive)'),
  ('COC(=O)CCSC(=O)Nc1ccccc1Cl', '> 100 µM (inactive)'),
  ('NC(=O)c1ccc(/N=N/O)nc1', '> 100 µM (inactive)'),
  ('C=C1C(=O)C23CC1CCC2C12CO[C@@]3(O)[C@@H](O)C1C(C)(C)C=CC2=O (stereo partly specified)', '> 10 µM (inactive)'),
  ('CN(C)c1ccc(/C=C(\NC(=O)c2ccccc2)C(=O)NCC(=O)O)cc1', '> 100 µM (inactive)'),
  ('c1ccc2c3c([nH]c2c1)[C@H]1C2CCCCN2CN1CC3 (stereo partly specified)', '> 100 µM (inactive)'),
  ('Cc1cc(C)nc(NS(=O)(=O)c2ccc(NC(=O)c3cccc4cc5ccccc5nc34)cc2)n1', '21.3 µM (inactive)'),
  ('CC(C)(C)OC(=O)C(C#N)C(=O)c1ccc(C(=O)O)[nH]1 (stereo unspecified)', '20.5 µM (inactive)'),
  ('CC1=C2CC3=C(C)C(=O)O[C@H]3C[C@@H](C)[C@@H]2CC1 [AMERICANOLIDE D]', '> 100 µM (inactive)'),
  ('COc1ccccc1NC(=O)CC(=O)N1N=C(C)C(/N=N/c2ccc(C(=O)O)cc2)C1=O (stereo unspecified)', '> 100 µM (inactive)'),
  ('c1ccc(CSc2nc(N3CCCCC3)c3cn[nH]c3n2)cc1', '15.6 µM (inactive)'),
  ('O=C1Nc2ccc(Br)cc2/C1=N/NC(=S)Nc1ccc([N+](=O)[O-])cc1', '5.56 µM (inactive)'),
  ('CCOC(=O)/C(C(=O)c1ccc([N+](=O)[O-])cc1)=C(\NS(=O)(=O)c1cc(C)c(Cl)cc1[S-])[n+]1ccc(N(C)C)cc1', '21.4 µM (inactive)'),
  ('CCOc1ccc(/C=C2/C(=O)N/C(=N\C(C)=O)N2C)cc1', '> 100 µM (inactive)'),
  ('COc1ccc(/N=N/c2c(-c3ccccc3)nn(C(=O)CC(=O)Nc3cccc(Cl)c3)c2-c2ccccc2)cc1', '> 100 µM (inactive)'),
  ('N#CC(c1cc(Cl)ncn1)c1nc2ccccc2s1 (stereo unspecified)', '21.8 µM (inactive)'),
  ('O=[N+]([O-])/C=C\c1c[nH]c2ccc(OCc3ccccc3)cc12', '10.5 µM (inactive)'),
  ('O=C1C(Cl)=C(Cl)C(=O)N1c1ccc(Cl)c(Cl)c1Cl', '> 100 µM (inactive)');
